Origin of values: patent US5660976A

protocol.notes: Acute toxicity (LD50) in rats
measurement.context: rat, in vivo, iv; i.v. (rats)
quantity.name: LD50

// LD50 lookup, compound = Cc1c(C)c2c(c(C)c1OP(=O)(O)OC1=C(O)[C@@H]([C@@H](O)CO)OC1=O)CCC(C)(CCCC(C)CCCC(C)CCCC(C)C)O2 (mixture of isomers) , result: ≥ 100 mg/kg

* * *

protocol.notes: Acute toxicity (LD50) in rats
measurement.context: rat, in vivo, po; p.o. (rats)
quantity.name: LD50

// LD50 lookup, compound = Cc1c(C)c2c(c(C)c1OP(=O)(O)OC1=C(O)[C@@H]([C@@H](O)CO)OC1=O)CCC(C)(CCCC(C)CCCC(C)CCCC(C)C)O2 (mixture of isomers) , result: ≥ 5000 mg/kg
